These data points were gathered from patent US20120220665A1.

- Tested On: human norepinephrine transporter (hNET) (Homo sapiens, UniProt P23975)
- Construct: expressed in transfected cells; host or cells: HEK-293, stably transfected; membranes
- Sequence (P23975 whole entry): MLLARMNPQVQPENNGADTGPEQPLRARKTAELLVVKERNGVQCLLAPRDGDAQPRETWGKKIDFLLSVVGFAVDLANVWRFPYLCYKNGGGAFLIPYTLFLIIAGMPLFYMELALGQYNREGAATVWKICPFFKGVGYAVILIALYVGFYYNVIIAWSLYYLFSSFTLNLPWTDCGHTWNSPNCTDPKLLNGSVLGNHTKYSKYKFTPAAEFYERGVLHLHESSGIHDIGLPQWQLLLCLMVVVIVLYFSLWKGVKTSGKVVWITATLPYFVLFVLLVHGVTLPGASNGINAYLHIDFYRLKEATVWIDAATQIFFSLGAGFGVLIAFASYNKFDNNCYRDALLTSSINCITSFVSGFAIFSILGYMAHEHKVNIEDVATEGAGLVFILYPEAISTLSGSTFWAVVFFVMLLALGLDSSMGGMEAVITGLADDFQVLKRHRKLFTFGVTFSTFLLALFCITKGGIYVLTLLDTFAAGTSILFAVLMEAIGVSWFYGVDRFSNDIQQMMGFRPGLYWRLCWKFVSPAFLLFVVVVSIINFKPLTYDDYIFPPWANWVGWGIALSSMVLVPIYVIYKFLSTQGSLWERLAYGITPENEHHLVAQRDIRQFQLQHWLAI
- Assay Method Text: Human transporter radioligand binding, hNET ([3H]nisoxetine, HEK-293 membranes)
- Setup Conditions: HCl salts of test compounds; n ≥ 3, values marked b n = 1; read-out: Equilibrium Dissociation Constant (KD) for Transporter Binding (Geometric Mean; nM ± SEM) hNET (N)
Attribute Measured: Kd (nM)

Molecule	Readout Unit	Kd
CNC[C@H](c1ccccc1)[C@@H](O)c1ccc(F)cc1 [MCJ001-F—Ph—OH-RS/SR]	nM	2660

(I) CNC[C@H](c1ccc2ccccc2c1)[C@@H](O)c1ccc(F)cc1 [MCJ001-4F—Ph—OH-RS/SR]
(II) CNC[C@H](c1ccc2ccccc2c1)[C@H](O)c1ccc(F)cc1 [MCJ001-4F—Ph—OH-SS/RR]
(III) CNC[C@H](c1ccccc1)[C@H](O)c1ccc(F)cc1 [MCJ001-F—Ph—OH-SS/RR]
(IV) CNCC(c1ccccc1)C(O)c1ccc(Br)cc1 (stereo not drawn) [MCJ001-Br—Ph—OH-RS/SR]
Q: Arrange the 4 molecules by rising Kd, starting with the smallest. Would you mind listing the labels in the order requested?
Result: II, I, III, IV

(a) CNC[C@H](c1ccc2ccccc2c1)[C@@H](OCCCCCCCO[C@@H](c1ccccc1)[C@H](CNC)c1ccc2ccccc2c1)c1ccccc1 [MCJ001-Dimer7-SS]
(b) CN(C)C[C@H](c1ccc2ccccc2c1)[C@@H](Cl)c1ccccc1 [MCJ002-Cl-RS]
Q: Which is greater in Kd, the first item a or the second item b ? Write down the label attached to your selection.
Result: b

====

- System: hSERT (S), hNET (N), hDAT (D)
- Assay Method Text: Comparison of binding potency across the three human transporters
- Setup Conditions: highest KD / lowest KD among hSERT, hNET, hDAT
Attribute Measured: Potency Range

CN(C)C[C@H](c1ccc2ccccc2c1)[C@@H](F)c1ccccc1 40
CNC[C@H](c1ccc2ccccc2c1)[C@@H](O)c1ccc(F)cc1 9
CNC[C@H](c1ccc2ccccc2c1)[C@H](O)c1ccccc1 45

(A) CNC[C@H](c1ccccc1)[C@H](O)c1ccc(F)cc1
(B) CNC[C@H](c1ccc2ccccc2c1)[C@H](O)c1ccc(F)cc1
Q: Between A and B , which one has the lower reported Potency Range value? Refer to your chosen item by its label in the answer.
Result: B

====

- Tested On: human norepinephrine transporter (hNET) (Homo sapiens)
- Construct: expressed in transfected cells; host or cells: HEK-293, stably transfected; membranes
- Assay Method Text: Human transporter radioligand binding, hNET ([3H]nisoxetine, HEK-293 membranes)
- Setup Conditions: HCl salts of test compounds; n ≥ 3, values marked b n = 1; read-out: Equilibrium Dissociation Constant (KD) for Transporter Binding (Geometric Mean; nM ± SEM) hNET (N)
Attribute Measured: Kd (nM)

CN(C)C[C@H](c1ccc2ccccc2c1)[C@@H](F)c1ccccc1 45
CN(C)C[C@H](c1ccc2ccccc2c1)[C@H](Cl)c1ccccc1 50
CNC[C@H](c1ccccc1)[C@@H](O)c1ccc2ccccc2c1 7620
CNC[C@H](c1ccc2ccccc2c1)[C@H](O)c1ccccc1 0.6
CNC[C@@H](c1ccccc1)[C@@H](O)c1ccc2ccccc2c1 1390
